B1: Mineralocorticoid receptor, residues 600 to 675; numbered along this chain, P08235 (parent)
chain: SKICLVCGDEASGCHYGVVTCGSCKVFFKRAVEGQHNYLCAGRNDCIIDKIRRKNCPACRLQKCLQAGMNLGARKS

variants of: B1; test: abundance fitness (aPCA) (normalised: wild type 0, dead -1); higher = more abundant; growth selection in yeast, the domain comes from the species named; settings: Homo sapiens
experimental-endpoint: abundance fitness
// print number alone

Use the examples below as a reference point.
>  <mutation-code>
N55Q

>  <experimental-endpoint>
abundance fitness

>  <test-value>
0.013

$$$$
>  <mutation-code>
I3E

>  <experimental-endpoint>
abundance fitness

>  <test-value>
-0.146

$$$$
>  <mutation-code>
C21V

>  <experimental-endpoint>
abundance fitness

>  <test-value>
-1.11

$$$$
>  <mutation-code>
P57K

>  <experimental-endpoint>
abundance fitness

>  <test-value>
0.006

$$$$
>  <mutation-code>
V6C

>  <experimental-endpoint>
abundance fitness

>  <test-value>
-0.228

$$$$
>  <mutation-code>
C46D

>  <experimental-endpoint>
abundance fitness

>  <test-value>
-0.785

$$$$
>  <mutation-code>
A58N

>  <experimental-endpoint>
abundance fitness

>  <test-value>
-0.03

$$$$
>  <mutation-code>
C7T

>  <experimental-endpoint>
abundance fitness

>  <test-value>
-0.999

$$$$

Prompt: Consider the variant V6L and give its measured abundance fitness.
Response: -0.375

Prompt: Consider the variant D45R and give its measured abundance fitness.
Response: -0.024

Prompt: Consider the variant Y16S and give its measured abundance fitness.
Response: -0.097

Prompt: Consider the variant C7V and give its measured abundance fitness.
Response: -0.998

Prompt: Consider the variant C59M and give its measured abundance fitness.
Response: -0.913

Prompt: Consider the variant I51V and give its measured abundance fitness.
Response: 0.085

Prompt: Consider the variant R52V and give its measured abundance fitness.
Response: -0.114

Prompt: Consider the variant M69R and give its measured abundance fitness.
Response: -0.421

Prompt: Consider the variant Y38N and give its measured abundance fitness.
Response: -0.098

Prompt: Consider the variant E33L and give its measured abundance fitness.
Response: -0.109
